Target: ENPP1 (Homo sapiens)
Sequence (P22413 1-925): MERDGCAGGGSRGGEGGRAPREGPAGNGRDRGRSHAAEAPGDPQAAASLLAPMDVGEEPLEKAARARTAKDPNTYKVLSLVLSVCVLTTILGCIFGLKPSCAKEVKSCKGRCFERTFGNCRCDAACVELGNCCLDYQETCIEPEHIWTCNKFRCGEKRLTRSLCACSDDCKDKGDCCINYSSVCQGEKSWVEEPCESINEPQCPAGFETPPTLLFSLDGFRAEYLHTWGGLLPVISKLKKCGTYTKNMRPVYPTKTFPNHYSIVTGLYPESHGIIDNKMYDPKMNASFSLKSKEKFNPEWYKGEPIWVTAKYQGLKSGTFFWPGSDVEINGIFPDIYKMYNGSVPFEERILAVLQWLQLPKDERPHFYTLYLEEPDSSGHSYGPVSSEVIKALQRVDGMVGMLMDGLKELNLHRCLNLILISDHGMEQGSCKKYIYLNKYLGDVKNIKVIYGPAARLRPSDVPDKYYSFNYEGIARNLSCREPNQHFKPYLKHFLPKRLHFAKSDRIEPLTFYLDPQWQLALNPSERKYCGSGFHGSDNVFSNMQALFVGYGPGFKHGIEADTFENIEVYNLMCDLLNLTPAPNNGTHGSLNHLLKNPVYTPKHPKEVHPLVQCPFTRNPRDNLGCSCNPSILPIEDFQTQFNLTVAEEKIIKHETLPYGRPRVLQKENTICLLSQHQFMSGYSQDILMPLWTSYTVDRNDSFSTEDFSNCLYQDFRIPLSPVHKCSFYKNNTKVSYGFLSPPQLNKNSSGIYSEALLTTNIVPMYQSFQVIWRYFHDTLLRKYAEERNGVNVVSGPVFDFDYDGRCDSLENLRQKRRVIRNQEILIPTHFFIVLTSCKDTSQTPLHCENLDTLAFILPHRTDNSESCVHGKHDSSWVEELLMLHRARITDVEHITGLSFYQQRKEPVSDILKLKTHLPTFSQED
Experiment: Substrate selectivity ratio, inhibition of cGAMP hydrolysis versus ATP hydrolysis
Type: biochemical
Conditions: ratio Ki AMP-pNP / Ki cGAMP
Method: The selectivity ratios for inhibition of cGAMP hydrolysis versus ATP hydrolysis were then calculated as follows: […]
Reported Metric: Substrate Selectivity: Ki_AMP-pNP/Ki_cGAMP

Compound	Qual	Result
COc1ccc2c(Oc3ccc(NS(N)(=O)=O)cc3)ncnc2n1	=	51.9
NS(=O)(=O)N1CCC2(CCN(c3ncnc4ccc(F)cc34)CC2)C1	=	27.9
COc1ccc2c(-c3ccc(CN(C4CC4)S(N)(=O)=O)cc3)ccnc2c1	>	626
COc1ccc2c(Oc3ccc(NS(=O)(=O)NN)cc3)ccnc2c1	>	216
COc1cc2ncc(C#N)c(-c3ccc(S(N)(=O)=O)cc3)c2cc1OC	>	461
COc1cc2nccc(Oc3ccc(NS(N)(=O)=O)cc3)c2cn1	=	35
COc1cc2ncc(F)c(-c3ccc(CNS(N)(=O)=O)cc3)c2cc1OC	=	67.2
COc1ccc2c(NCc3ccc(NS(N)(=O)=O)cc3)ccnc2n1	=	30
COc1cc2nccc(-c3ccc(CNS(N)(=O)=O)cc3)c2cc1F	=	62
COc1cc2nc(N)nc(N3CCC(CCNS(N)(=O)=O)CC3)c2cc1OC	=	41.7
COc1cc2ncnc(N3CCC(CCS(N)(=O)=O)CC3)c2cc1OC	=	14.8
COc1cc2nccc(N3CCc4cc(NS(N)(=O)=O)ccc43)c2cc1F	=	11.9
COc1cc2nccc(NC3CCC(NS(N)(=O)=O)CC3)c2cc1OC (stereo not shown)	>	15.5
COc1cc2ncnc(NCCc3ccc(NS(N)(=O)=O)cc3)c2cc1OC	=	23.3
COc1ccc2c(N3CCc4cc(N(C)S(N)(=O)=O)ccc43)ccnc2c1	>	40
COc1cc2nccc(NCc3ccc(S(N)(=O)=O)cc3)c2cc1F	=	6.3
COc1cc2c(N3CCC(CCNS(N)(=O)=O)CC3)ncnc2cc1F	>	18.0
COc1ccc2c(Oc3ccc(S(N)(=O)=O)cc3)c(C)cnc2c1	=	54
COc1ccc2c(N3CCc4cc(NS(N)(=O)=O)ccc43)ncnc2c1	>	133

The reported numbers originate from patent US20230183239A1.
